system: SK-MEL-28; test: Growth inhibition of human SK-MEL-28 cells after 48 hrs by sulforhodamine B assay; format: functional; conditions: SK-MEL-28, 48 h, read-out: pLC50 (the source's name) (converted)
Below, each entry is listed with its recorded CC50.

As a guide, the following entries are already answered.
[
  {
    "COMPOUND": "COc1cc(/C=C/c2cc3c(c(SC)c2)O[C@]2(C)CC[C@@H](O)C(C)(C)[C@H]2C3)cc(O)c1C/C=C(\\C)CCC=C(C)C",
    "DATA VALUE": "> 100 µM"
  },
  {
    "COMPOUND": "COCOc1cc(/C=C/c2cc(C=O)c3c(c2)C[C@@H]2C(C)(C)[C@H](O)CC[C@@]2(C)O3)cc(OC)c1C/C=C(\\C)CCC=C(C)C",
    "DATA VALUE": "> 100 µM"
  }
]

Could you now consider this next molecule?
CC50 reported for this molecule COCOc1cc(/C=C/c2cc(CO)c3c(c2)C[C@@H]2C(C)(C)[C@H](O)CC[C@@]2(C)O3)cc(OC)c1C/C=C(\C)CCC=C(C)C : > 100 µM

----------
system: HT-29; assay: Growth inhibition of human HT-29 cells after 48 hrs by sulforhodamine B assay; assay type: functional; details: HT-29, 48 h
Quick list: LC50 (concentration killing 50% of cells) per entry.

Use these answered entries as a reference point.
[
  {
    "COMPOUND": "COCOc1cc(/C=C/c2cc(CO)c3c(c2)C[C@@H]2C(C)(C)[C@H](O)CC[C@@]2(C)O3)cc(OC)c1C/C=C(\\C)CCC=C(C)C",
    "DATA VALUE": "> 100 µM"
  },
  {
    "COMPOUND": "COc1cc(/C=C/c2cc3c(c(SC)c2)O[C@]2(C)CC[C@@H](O)C(C)(C)[C@H]2C3)cc(O)c1C/C=C(\\C)CCC=C(C)C",
    "DATA VALUE": "> 100 µM"
  }
]

The compound identified as COCOc1cc(/C=C/c2cc(C=O)c3c(c2)C[C@@H]2C(C)(C)[C@H](O)CC[C@@]2(C)O3)cc(OC)c1C/C=C(\C)CCC=C(C)C registered its LC50 (concentration killing 50% of cells) at > 100 µM

----------
experiment: Growth inhibition of human Hs 578T cells after 48 hrs by sulforhodamine B assay; assay type: functional; conditions: read-out: pTGI (converted)
RECORDED METRIC: TGI

Consider the reported TGI for these molecules:
[
  {
    "COMPOUND": "COc1cc(/C=C/c2cc(F)c3c(c2)C[C@@H]2C(C)(C)[C@H](O)CC[C@@]2(C)O3)cc(O)c1C/C=C(\\C)CCC=C(C)C",
    "TGI": "> 100 µM"
  },
  {
    "COMPOUND": "COCOc1cc(/C=C/c2cc(CO)c3c(c2)C[C@@H]2C(C)(C)[C@H](O)CC[C@@]2(C)O3)cc(OC)c1C/C=C(\\C)CCC=C(C)C",
    "TGI": "> 100 µM"
  }
]

Could you now consider this next molecule?
The measured TGI associated with COCOc1cc(/C=C/c2cc(C=O)c3c(c2)C[C@@H]2C(C)(C)[C@H](O)CC[C@@]2(C)O3)cc(OC)c1C/C=C(\C)CCC=C(C)C reads > 100 µM

----------
test system: NCI/ADR-RES; test: Growth inhibition of human NCI/ADR-RES cells after 48 hrs by sulforhodamine B assay; type: functional
RECORDED METRIC: LC50

[
  {
    "COMPOUND": "COc1cc(/C=C/c2cc3c(c(SC)c2)O[C@]2(C)CC[C@@H](O)C(C)(C)[C@H]2C3)cc(O)c1C/C=C(\\C)CCC=C(C)C",
    "STUDY TARGET": "NCI/ADR-RES",
    "LC50": "> 100 µM"
  },
  {
    "COMPOUND": "COc1cc(/C=C/c2ccc3c(c2)C[C@@H]2C(C)(C)[C@H](O)CC[C@@]2(C)O3)cc(O)c1C/C=C(\\C)CCC=C(C)C",
    "STUDY TARGET": "NCI/ADR-RES",
    "LC50": "> 100 µM"
  }
]

Turning now to a further molecule:
Sure, the documented LC50 for COCOc1cc(/C=C/c2cc(C=O)c3c(c2)C[C@@H]2C(C)(C)[C@H](O)CC[C@@]2(C)O3)cc(OC)c1C/C=C(\C)CCC=C(C)C is > 100 µM

----------
tested on: BT-549; assay: Growth inhibition of human BT549 cells after 48 hrs by sulforhodamine B assay; format: functional; settings: BT-549, 48 h
Here, each record is paired with measured LC50 data.

Record excerpt, results attached:
[
  {
    "COMPOUND": "COc1cc(/C=C/c2cc3c(c(SC)c2)O[C@]2(C)CC[C@@H](O)C(C)(C)[C@H]2C3)cc(O)c1C/C=C(\\C)CCC=C(C)C",
    "LC50": "> 100 µM"
  },
  {
    "COMPOUND": "COc1cc(/C=C/c2cc(F)c3c(c2)C[C@@H]2C(C)(C)[C@H](O)CC[C@@]2(C)O3)cc(O)c1C/C=C(\\C)CCC=C(C)C",
    "LC50": "> 100 µM"
  }
]

// COCOc1cc(/C=C/c2cc(C=O)c3c(c2)C[C@@H]2C(C)(C)[C@H](O)CC[C@@]2(C)O3)cc(OC)c1C/C=C(\C)CCC=C(C)C : LC50 value = > 100 µM

Origin of the recorded values: ChEMBL document CHEMBL1926642
